Cited source: patent US4097482A

molecules and their reported Percent decrease (of the edema reaction) after 3 hours
# Test system: ovalbumin-induced systemic edema
# testSummary: Anti-inflammatory action: ovalbumin-induced systemic edema method
# Assay type: in vivo
# assaySetup: rats, 100 mg orally 1 hr prior to and with ovalbumin; vs control group; after 3 hours
metric: Percent decrease (of the edema reaction) after 3 hours (%)

# molecule, targetEntity, numericResult
rows = [
    ("COC(=O)c1ccccc1CN1CCc2sccc2C1 [Derivative no. 1]", "ovalbumin-induced systemic edema", 58),
    ("Cl.Clc1ccc(CN2CCc3sccc3C2)s1 [Derivative no. 4]", "ovalbumin-induced systemic edema", 53),
    ("OCc1ccccc1CN1CCc2sccc2C1 [Derivative no. 10]", "ovalbumin-induced systemic edema", 62),
    ("Cl.c1cc2c(s1)CCN(Cc1ccc3c(c1)OCO3)C2 [Derivative no. 8]", "ovalbumin-induced systemic edema", 64),
]

====

Listed next: entries and their corresponding LD50 at 24 h.
# testSummary: Toxicological investigation: acute toxicity LD50 in mice, intravenous route
# assaySetup: mouse, in vivo, per kg body weight
metric: LD50 at 24 h (mg/kg)

# compound, unitAbbrev, numericResult
data = [
    ("Cl.c1cc2c(s1)CCN(Cc1ccc3c(c1)OCO3)C2", "mg/kg", 65),
    ("Cl.Clc1ccc(CN2CCc3sccc3C2)s1", "mg/kg", 165),
    ("Cl.Clc1ccccc1C=CCN1CCc2sccc2C1", "mg/kg", 60),
    ("N#Cc1ccccc1CN1CCc2sccc2C1.O=C(O)/C=C\\C(=O)O", "mg/kg", 45),
    ("COC(=O)c1ccccc1CN1Cc2ccsc2CC1C (stereo not shown)", "mg/kg", 65),
    ("O=C(O)c1ccccc1CN1CCc2sccc2C1", "mg/kg", 300),
    ("COC(=O)c1ccccc1CN1CCc2sccc2C1", "mg/kg", 92),
]

====

# Test system: ovalbumin-induced systemic edema
# testSummary: Anti-inflammatory action: ovalbumin-induced systemic edema method
# Type: in vivo
# assaySetup: rats, 100 mg orally 1 hr prior to and with ovalbumin; vs control group; after 2 hours
metric: Percent decrease (of the edema reaction) after 2 hours (%)

# molecule, unitAbbrev, numericResult
data = [
    ("Cl.c1cc2c(s1)CCN(Cc1ccc3c(c1)OCO3)C2 [Derivative no. 8]", "%", 54),
    ("Cl.Clc1ccc(CN2CCc3sccc3C2)s1 [Derivative no. 4]", "%", 48),
    ("COC(=O)c1ccccc1CN1CCc2sccc2C1 [Derivative no. 1]", "%", 51),
    ("OCc1ccccc1CN1CCc2sccc2C1 [Derivative no. 10]", "%", 51),
]
